Provenance of the data: patent US20090298707A1

# Tested on: S. aureus AM1
# assay_details: Pulldown binding assay, Langmuir isotherm fit, S. aureus
# Design: species or system Staphylococcus aureus
# condition_details: maximum surface concentration from Langmuir fit
experimental_endpoint: Monolayer Concentration (N) (Mol/m^2 × 0.0001)
Kindly provide the numeric value in Mol/m^2 × 0.0001 only, without the unit symbol.

substance	Monolayer Concentration (N) / Mol/m^2 × 0.0001
Pilot Library 3D: pilot library 9-mer, SEQ ID NO:29; became D1 of the in-plane matrix (SEQ ID NO:58) (VASYVATQV; synthetic pilot library peptide D3)	0.18
Pilot Library 3C: pilot library 9-mer, SEQ ID NO:23; became A1 of the in-plane matrix (SEQ ID NO:46) (LISYILTQL; synthetic pilot library peptide C3)	0.31
Orthogonal refinement 2A: orthogonal refined library peptide, SEQ ID NO:63 (IVVILSQQN; synthetic orthogonal refinement library peptide A2)	0.14
Pilot Library 4D: pilot library 9-mer, SEQ ID NO:30; corner of the in-plane matrix (SEQ ID NO:61) (VAKDVAERV; synthetic pilot library peptide D4)	0.12
Pilot Library 4C: pilot library 9-mer, SEQ ID NO:24; became A4 of the in-plane matrix (SEQ ID NO:49) (LIKDILERL; synthetic pilot library peptide C4)	0.23

Now, please, on to the next substance.
Provide measured Monolayer Concentration (N) value, entry: Orthogonal refinement 2C: orthogonal refined library peptide, SEQ ID NO:71 (IVSQVIQNL; synthetic orthogonal refinement library peptide C2)
7

###

Reported Langmuir Affinity (Ka) values are given for each entry in this list.
# Test system: M. luteus MS2
# assay_details: Pulldown binding assay, Langmuir isotherm fit, M. luteus
# Parameters: species or system Micrococcus luteus
# condition_details: association constant from Langmuir isotherm fit
A bare number is not enough; add the unit after it.

Record excerpt, results attached:
substance	system	data_value
Pilot Library 3C: pilot library 9-mer, SEQ ID NO:23; became A1 of the in-plane matrix (SEQ ID NO:46) (LISYILTQL; synthetic pilot library peptide C3)	M. luteus MS2	4 ± 1 M^−1 × 10000
Orthogonal refinement 2C: orthogonal refined library peptide, SEQ ID NO:71 (IVSQVIQNL; synthetic orthogonal refinement library peptide C2)	M. luteus MS2	1.4 ± 0.4 M^−1 × 10000

From here, focus on the item given below.
Consider the substance Pilot Library 4C: pilot library 9-mer, SEQ ID NO:24; became A4 of the in-plane matrix (SEQ ID NO:49) (LIKDILERL; synthetic pilot library peptide C4) and give its recorded Langmuir Affinity (Ka).
1 ± 0.6 M^−1 × 10000

###

# System: M. luteus MS2
# assay_details: Pulldown binding assay, Langmuir isotherm fit, M. luteus
# Set-up: species or system Micrococcus luteus
# condition_details: association constant from Langmuir isotherm fit
Please enter Satisfied where Langmuir Affinity (Ka) is greater than or equal to 5 M^−1 × 10000, and Not satisfied where it is lower.

substance	classification
In-plane refinement 3A: in-plane refined library peptide, SEQ ID NO:48 (LIERILQNL; synthetic in-plane refinement library peptide A3)	Satisfied
In-plane refinement 1B: in-plane refined library peptide, SEQ ID NO:50 (IVSYVITQL; synthetic in-plane refinement library peptide B1)	Not satisfied
Orthogonal refinement 2A: orthogonal refined library peptide, SEQ ID NO:63 (IVVILSQQN; synthetic orthogonal refinement library peptide A2)	Not satisfied
Pilot Library 3D: pilot library 9-mer, SEQ ID NO:29; became D1 of the in-plane matrix (SEQ ID NO:58) (VASYVATQV; synthetic pilot library peptide D3)	Satisfied

Shifting focus to the substance that follows.
Check the entry Orthogonal refinement 2B: orthogonal refined library peptide, SEQ ID NO:67 (IVVSQQILN; synthetic orthogonal refinement library peptide B2) : does Langmuir Affinity (Ka) equal or exceed 5 M^−1 × 10000?
Not satisfied
